Data origin: patent US8389563B2

System Tested: Ah receptor (Rattus norvegicus, UniProt P41738)
Measurement Protocol: Ah receptor competitive binding
Setup Conditions: read-out: IC50 competitive binding values, Ah receptor
Measurement Label: pIC50
Numbers only, as −log10 of the molar value.

# query: pIC50 of entry "Cn1cc(C(c2ccc(-c3ccccc3)cc2)c2cn(C)c3ccccc23)c2ccccc21"
8.74

* * *

System Tested: Ah receptor (Rattus norvegicus, UniProt P41738)
Sequence (P41738 10-853): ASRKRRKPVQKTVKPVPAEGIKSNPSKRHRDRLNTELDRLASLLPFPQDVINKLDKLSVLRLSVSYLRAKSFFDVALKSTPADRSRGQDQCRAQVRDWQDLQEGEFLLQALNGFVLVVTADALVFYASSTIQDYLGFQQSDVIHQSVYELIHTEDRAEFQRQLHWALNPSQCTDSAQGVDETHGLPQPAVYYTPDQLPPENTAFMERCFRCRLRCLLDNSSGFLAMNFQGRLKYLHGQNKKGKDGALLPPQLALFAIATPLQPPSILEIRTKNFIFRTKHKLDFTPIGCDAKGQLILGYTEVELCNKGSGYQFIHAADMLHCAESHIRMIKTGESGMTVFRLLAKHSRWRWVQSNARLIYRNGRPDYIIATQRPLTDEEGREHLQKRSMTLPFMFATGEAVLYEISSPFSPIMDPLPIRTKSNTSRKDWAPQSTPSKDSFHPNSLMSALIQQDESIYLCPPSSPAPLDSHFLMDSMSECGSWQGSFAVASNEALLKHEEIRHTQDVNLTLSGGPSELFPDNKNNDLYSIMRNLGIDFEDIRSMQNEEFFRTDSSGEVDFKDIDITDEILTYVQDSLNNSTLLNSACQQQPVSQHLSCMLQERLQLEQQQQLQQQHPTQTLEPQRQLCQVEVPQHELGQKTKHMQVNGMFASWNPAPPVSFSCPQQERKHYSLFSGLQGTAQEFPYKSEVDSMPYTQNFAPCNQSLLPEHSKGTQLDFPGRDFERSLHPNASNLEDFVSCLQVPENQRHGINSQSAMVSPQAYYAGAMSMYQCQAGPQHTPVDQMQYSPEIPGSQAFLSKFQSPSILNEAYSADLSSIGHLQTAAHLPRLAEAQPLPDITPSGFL
Measurement Protocol: Ah receptor competitive binding
Task for the reader: assign each of the following compounds its reported IC50.
One number for each entry, in nM.

Below, 2 compounds whose answers are already recorded.
[[record]]
smiles_repr = "c1ccc(C(c2c[nH]c3ccccc23)c2c[nH]c3ccccc23)cc1"
measurement_unit = "nM"
quantitative_result = 98

[[record]]
smiles_repr = "Cn1cc(C(c2ccc(Cl)cc2)c2cn(C)c3ccccc23)c2ccccc21"
measurement_unit = "nM"
quantitative_result = 0.55


Proceed to the following item.
# query: IC50 of entry "CC(c1c[nH]c2ccccc12)c1c[nH]c2ccccc12"
11
